melting point for assorted compounds
MEASURED QUANTITY: melting point

1) Cc1cccc(Cc2cc3cnc(NC4CCC(N(C)C)CC4)nc3n(C3CCCC3)c2=O)c1 (centres unmarked) | 191 to 194 °C
2) CCCN1CCC(Nc2ncc3cc(Cc4cccc(C)c4)c(=O)n(C4CCCC4)c3n2)CC1 | 118 to 120 °C
3) Cc1ccc(Cc2cc3cnc(NCCCN4CCOCC4)nc3n(C3CCCC3)c2=O)cc1 | 114 to 116 °C
4) Cc1ccc(Cc2cc3cnc(Nc4ccc(N5CCOC5=O)cc4)nc3n(C3CCCC3)c2=O)cc1 | 289.2 to 290 °C
5) CC(C)c1ccc(Cc2cc3cnc(Nc4ccc(N5CCNCC5)cc4)nc3n(C3CCCC3)c2=O)cc1 | 140 to 145 °C
6) CNc1ncc2cc(Cc3ccccc3)c(=O)n(C3CCCC3)c2n1 | 144 to 146 °C
7) Cc1ccccc1Cc1cc2cnc(Nc3ccc(N4CCNCC4)cc3)nc2n(C2CCCC2)c1=O | 210 °C
8) CC(C)S(=O)(=O)N1CCC(Nc2ncc3cc(Cc4ccccn4)c(=O)n(C4CCCC4)c3n2)CC1 | 216 to 219 °C
9) CCCN1CCC(Nc2ncc3cc(Cc4nccs4)c(=O)n(C4CCCC4)c3n2)CC1 | 149 to 152 °C
10) CCCN1CCC(Nc2ncc3cc(Cc4ccccc4C)c(=O)n(C4CCCC4)c3n2)CC1 | 149 to 151 °C
11) Cc1ccccc1Cc1cc2cnc(NC3CCC(N(C)C)CC3)nc2n(C2CCCC2)c1=O (centres unmarked) | 178 to 183 °C
12) CN(C)CCCCNc1ncc2cc(Cc3nccs3)c(=O)n(C3CCCC3)c2n1 | 122 to 124 °C
13) O=c1c(Cc2ccccc2)cc2cnc(NC3CCCCC3)nc2n1C1CCCC1 | 128 to 130 °C
14) Cc1ccc(Cc2cc3cnc(NC4CCC(N(C)C)CC4)nc3n(C3CCCC3)c2=O)cc1 (centres unmarked) | 179 to 184 °C
15) Cc1ccccc1Cc1cc2cnc(NCCCN3CCOCC3)nc2n(C2CCCC2)c1=O | 118 to 119 °C
16) CN(C)CCCCNc1ncc2cc(Cc3ccccn3)c(=O)n(C3CCCC3)c2n1 | 105 to 107 °C
17) Cc1c(C(=O)c2ccccc2)c(=O)n(C2CCCC2)c2nc(Nc3ccc(N4CCNCC4)cc3)ncc12 | 190 °C (dec.)

* * *

MEASURED QUANTITY: melting point

1. Cc1ccc(Cc2cc3cnc(NCCN4CCOCC4)nc3n(C3CCCC3)c2=O)cc1 [Example 75] | 88 to 91 °C
2. Cc1c(C(O)c2ccccc2)c(=O)n(C2CCCC2)c2nc(Nc3ccc(N4CCNCC4)cc3)ncc12 (centres unmarked) [Example 31] | 185 °C (dec.)
3. O=c1c(Cc2ccccc2)cc2cnc(NCCc3cnc[nH]3)nc2n1C1CCCC1 [Example 51] | 163 to 165 °C
4. CCc1ccc(Cc2cc3cnc(NC4CCC(N(C)C)CC4)nc3n(C3CCCC3)c2=O)cc1 (centres unmarked) [Example 67] | 175 to 181 °C
5. O=c1c(Cc2ccccc2)cc2cnc(NCc3ccccc3)nc2n1C1CCCC1 [Example 43] | 186 to 188 °C
6. CCCN1CCC(Nc2ncc3cc(Cc4ccccc4)c(=O)n(C4CCCC4)c3n2)CC1 [Example 45] | 143 to 145 °C
7. Cc1ccccc1Cc1cc2cnc(NCCN3CCOCC3)nc2n(C2CCCC2)c1=O [Example 73] | 134 to 137 °C
8. Cc1c(Cc2ccccc2)c(=O)n(C2CCCC2)c2nc(Nc3ccc(N4CCNCC4)cc3)ncc12 [Example 29] | 114 °C
